SPOT peptide array binding signal intensity values for the binders below.
- system: AgMyo5
- protocol.text: SPOT peptide array binding signal intensity (averaged, normalized) (arbitrary units (background-subtracted, floor 0; scale differs between SH3 domains)); higher = stronger binding of the SH3 domain to the peptide
Give the figure by itself; no unit, no explanation.

Given `PPPPPPPPPPPLPQS` , state its recorded SPOT peptide array binding signal intensity.
688

Given `NFKRLLPRDPSEKSS` , state its recorded SPOT peptide array binding signal intensity.
1

Given `KRNRLKILLPFLEQS` , state its recorded SPOT peptide array binding signal intensity.
0.5

Given `GPPPPLPPPLFPSSS` , state its recorded SPOT peptide array binding signal intensity.
1900

Given `RMVRRRPLRVQFSAR` , state its recorded SPOT peptide array binding signal intensity.
2.5

Given `HRRRRVFSIPSLKSI` , state its recorded SPOT peptide array binding signal intensity.
6

Given `VPKEPAPAPPPEPDM` , state its recorded SPOT peptide array binding signal intensity.
520

Given `ALFRLSFFFPLDPAY` , state its recorded SPOT peptide array binding signal intensity.
6.5

Given `GKLKHIPRRPYEIER` , state its recorded SPOT peptide array binding signal intensity.
0.25
